Entry source: the supplement of paper PMC6555819

Tested on: PPARg DBDmut IVT, anti-PPARg (DBD mutation: PPARg1 K132A/R137A, NR concentration 270 nM)
Assay: PBM binding z-score (relative to random genomic background probes); higher = stronger binding; sequences stand for … in GC…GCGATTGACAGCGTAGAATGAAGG
Returns one of 1 (yes) or 0 (no); 1 (yes) when PBM binding z-score is >= -0.1.

Below are worked cases with known answers.
- Chain sequence: "AGTCAAAGTTCAGGACGAGGTAACGTAGAGCACG"
  Study target: "PPARg DBDmut IVT, anti-PPARg (DBD mutation: PPARg1 K132A/R137A, NR concentration 270 nM)"
  Assigned category: "1 (yes)"
- Chain sequence: "TGAATGAGGATATAAGATCAGGGAACGTTGCAAA"
  Study target: "PPARg DBDmut IVT, anti-PPARg (DBD mutation: PPARg1 K132A/R137A, NR concentration 270 nM)"
  Assigned category: "1 (yes)"
- Chain sequence: "TCGAGTAGGTTAGTCGGGGCAGTCAGCCAACATA"
  Study target: "PPARg DBDmut IVT, anti-PPARg (DBD mutation: PPARg1 K132A/R137A, NR concentration 270 nM)"
  Assigned category: "1 (yes)"
- Chain sequence: "AGTCAAAGTTCAGGACGAGGTAACGAAAAGCACG"
  Study target: "PPARg DBDmut IVT, anti-PPARg (DBD mutation: PPARg1 K132A/R137A, NR concentration 270 nM)"
  Assigned category: "1 (yes)"
- Chain sequence: "TCTAGCAGGCCAGAGGGCCACTCAAGAGGTACGG"
  Study target: "PPARg DBDmut IVT, anti-PPARg (DBD mutation: PPARg1 K132A/R137A, NR concentration 270 nM)"
  Assigned category: "0 (no)"
- Chain sequence: "ATAATGAGGTTAAGATCAGGGAAACAGAATACAT"
  Study target: "PPARg DBDmut IVT, anti-PPARg (DBD mutation: PPARg1 K132A/R137A, NR concentration 270 nM)"
  Assigned category: "1 (yes)"

Q: In plain terms: is recorded PBM binding z-score at least -0.1 for CAGCCTAGGTCAGGGGCAGTATAGGAGGAACGTT ?
Ans: 0 (no)

Q: In plain terms: is recorded PBM binding z-score at least -0.1 for CCTAGTTGGTCAAGTTCACACACGCTATAGGTAC ?
Ans: 1 (yes)

Q: In plain terms: is recorded PBM binding z-score at least -0.1 for CCAGACAGGTGAAAGGTATCTCAGTCTGGTACGC ?
Ans: 0 (no)

Q: In plain terms: is recorded PBM binding z-score at least -0.1 for CCGGCTAGGTCAATGGTCAGCTAAAGCAGCTCGC ?
Ans: 0 (no)

Q: In plain terms: is recorded PBM binding z-score at least -0.1 for ATATGTAGGTTACATCCGGGTCAGTCAGGCTATG ?
Ans: 1 (yes)

Q: In plain terms: is recorded PBM binding z-score at least -0.1 for CGTAGTTGGTCAGGAGGTCACACACCGGATATGA ?
Ans: 1 (yes)

====

Test system: PXR:RXRa (NR concentration 270 nM, RXRa partner concentration 90 nM)
Assay: PBM binding z-score (relative to random genomic background probes); higher = stronger binding; sequences stand for … in GC…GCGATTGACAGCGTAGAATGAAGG
Would you mind sorting the entries by PBM binding z-score according to these classes? bottom range: < 0.2; center range: ≥ 0.2 and < 2; top range: ≥ 2

Below are worked cases with known answers.
- Chain sequence: "ATCGAAAGGTCGAAGTGAGTATAGAGAAAGGGAA"
  Assigned category: "top range"
- Chain sequence: "TTACCTAGGTGAGCTGAGGTCGTTGATCCAACTC"
  Assigned category: "top range"
- Chain sequence: "TCTATTAGTTGATTAGTGCAACCGAAACAGCGGA"
  Assigned category: "center range"

Q: Any idea which band CCTATTAGTTGACAATAAGGGCAACCGAAGCTCG is in?
Ans: center range

Q: Any idea which band GGAACGAGGGCGAGTTGATAGCAGAGTTTGATGG is in?
Ans: bottom range
